The following are reported IC50 results, target or system Adenosine A2B (ADORA2B) receptor (Homo sapiens (Human)).

1) CC(=O)Nc1cc2nc(C)nn2c(-c2cccc(F)c2)n1 ... 100 to 1000 nM

Provide IC50, system Adenosine A2B (ADORA2B) receptor (Homo sapiens (Human)), entry CNC(=O)Nc1cc2nc(C)nn2c(-c2ccc(F)c(F)c2)n1 100 to 1000 nM

Recall the reported IC50 of Cc1ccc(-c2nc(NC(=O)C3CC3)cn3cc(C(C)C)nc23)o1 on Adenosine A2B (ADORA2B) receptor (Homo sapiens (Human)) and write it down. 10 to 100 nM

Supply IC50 measured with Adenosine A2B (ADORA2B) receptor (Homo sapiens (Human)) for COc1ccc(-c2nc(NC(C)=O)cc3nc(C)nn23)cc1 . 100 to 1000 nM

Jot down IC50 (Adenosine A2B (ADORA2B) receptor (Homo sapiens (Human))) of Cc1nc2c(Cl)c(NC(=O)C3CC3)nc(-c3ccc(C)o3)n2n1 . 100 to 1000 nM
